Tested On: PPARα (Homo sapiens)
Construct: 20 nM PPARα LBD GST fused (Thermo Scientific); purchased Thermo Scientific
Sequence (Q07869 239-466 limits assumed): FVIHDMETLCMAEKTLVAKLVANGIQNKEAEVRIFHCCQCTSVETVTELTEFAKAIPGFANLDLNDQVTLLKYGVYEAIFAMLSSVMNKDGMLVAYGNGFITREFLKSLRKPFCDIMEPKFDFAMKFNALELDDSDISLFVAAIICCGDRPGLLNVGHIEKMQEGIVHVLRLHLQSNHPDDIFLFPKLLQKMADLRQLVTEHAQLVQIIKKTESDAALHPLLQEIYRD
Assay Summary: AlphaScreen coactivator (SRC-1) recruitment assay on PPARα
Assay type: biochemical
Condition Set: AlphaScreen SRC-1 recruitment; compounds at 50 µM (footnote); fenofibrate = 100%
Listing of recorded PPARα efficacy (% vs. fenofibrate) by entry.
Provide only the numeric value, understood in %.

{"Compound": "CC[C@@H]1C2C[C@H](OC(=O)C(C)(C)Oc3ccc(C(=O)c4ccc(Cl)cc4)cc3)CC[C@]2(C)C2CC[C@@]3(C)C(CC[C@@H]3[C@H](C)CCOC(=O)C(C)(C)Oc3ccc(C(=O)c4ccc(Cl)cc4)cc3)C2[C@@H]1O (stereo partly shown)", "Tested On": "PPARα (Homo sapiens)", "Parameter": "PPARα efficacy (% vs. fenofibrate)", "Observed Measurement": 1.7}
{"Compound": "CCC1C(O)C2C3CCC(C(C)CC(=O)O)C3(C)CCC2C2(C)CCC(O)CC12 (stereo not shown) [BAR505, reference compound]", "Tested On": "PPARα (Homo sapiens)", "Parameter": "PPARα efficacy (% vs. fenofibrate)", "Observed Measurement": 40}

For this compound ( CC[C@@H]1C2C[C@H](OC(=O)C(C)(C)CCCOc3cc(C)ccc3C)CC[C@]2(C)C2CC[C@@]3(C)C(CC[C@@H]3[C@H](C)CCO)C2[C@@H]1O (stereo partly shown) ), measured PPARα efficacy (% vs. fenofibrate) is 5.3
